tested on: EsNMT; experiment: N-alkylation substrate screen using EsNMT (LC-MS); format: biochemical, Ephedra sinica; design: key: −=no detectable quantities of product N-alkylated compound; Trace, +, ++, +++=increasing relative levels of product N-alkylated compound; Trace, +, ++, +++=increasing relative levels of product N-alkylated compound; Trace, +, ++, +++=increasing relative levels of product N-alkylated compound; Trace, +, ++, +++=increasing relative levels of product N-alkylated compound; details: 25 μg protein, 1 mM substrate, 1 mM SAM, 60 mM HEPES pH 8, 16 hours at 37° C.; relative level of N-alkylated product by LC-MS
reported metric: N-alkylation of substrate alkaloid compounds, Enzyme EsNMT

molecule: N[C@@H](Cc1ccc(O)cc1)C(=O)O [Tyrosine, tyrosine]
test value: −
//
molecule: NC(=O)c1cccnc1 [Nicotinamide, nicotinamide]
test value: −
//
molecule: O=c1[nH]c(=O)c2ncn([C@@H]3O[C@H](CO)[C@@H](O)[C@H]3O)c2[nH]1 [Xanthosine, xanthosine]
test value: −
//
molecule: NCC(O)c1ccc(O)cc1 (centres unmarked) [Octopamine, octopamine]
test value: −
//
molecule: CC(N)C(O)c1ccccc1 (centres unmarked) [Norephedrine, norephedrine]
test value: +

###

test system: GfCNMT; assay: N-alkylation substrate screen using GfCNMT (LC-MS); assay type: biochemical, Glaucium flavum; parameters: key: −=no detectable quantities of product N-alkylated compound; Trace, +, ++, +++=increasing relative levels of product N-alkylated compound; Trace, +, ++, +++=increasing relative levels of product N-alkylated compound; Trace, +, ++, +++=increasing relative levels of product N-alkylated compound; Trace, +, ++, +++=increasing relative levels of product N-alkylated compound; details: 25 μg protein, 1 mM substrate, 1 mM SAM, 60 mM HEPES pH 8, 16 hours at 37° C.; relative level of N-alkylated product by LC-MS
reported metric: N-alkylation of substrate alkaloid compounds, Enzyme GfCNMT

compound: NCCc1c[nH]c2ccccc12
test value: Trace
--
compound: COc1ccc2c(c1OC)C(=O)O[C@@H]2[C@H]1c2c(cc3c(c2OC)OCO3)CCN1C [Noscapine, noscapine, reference compound]
test value: Trace
--
compound: CC(N)Cc1ccccc1 (stereo not drawn) [Amphetamine, amphetamine, reference compound]
test value: Trace
--
compound: CN[C@@H](C)[C@H](O)c1ccccc1 [Ephedrine, ephedrine, reference compound]
test value: −
--
compound: NCCc1ccccc1
test value: Trace
--
compound: COc1ccc2c3c([nH]c2c1)C(C)=NCC3
test value: +
--
compound: NCCc1c[nH]cn1
test value: −
--
compound: c1cc2c(c3c1C[C@H]1c4cc5c(cc4CCN1C3)OCO5)OCO2
test value: +
--
compound: COc1cc(CCN)cc(OC)c1OC
test value: −

###

system: EsNMT; assay: N-alkylation substrate screen using EsNMT (LC-MS); format: biochemical, Ephedra sinica; parameters: key: −=no detectable quantities of product N-alkylated compound; Trace, +, ++, +++=increasing relative levels of product N-alkylated compound; Trace, +, ++, +++=increasing relative levels of product N-alkylated compound; Trace, +, ++, +++=increasing relative levels of product N-alkylated compound; Trace, +, ++, +++=increasing relative levels of product N-alkylated compound; conditions: 25 μg protein, 1 mM substrate, 1 mM SAM, 60 mM HEPES pH 8, 16 hours at 37° C.; relative level of N-alkylated product by LC-MS
reported metric: N-alkylation of substrate alkaloid compounds, Enzyme EsNMT

molecule: NCCc1ccccc1
test value: +
--
molecule: NCCc1ccc(O)cc1
test value: +
--
molecule: CN(C)c1ccc(C=O)cc1
test value: −
--
molecule: N[C@@H](Cc1c[nH]c2ccccc12)C(=O)O
test value: −
--
molecule: CNC(C)C(=O)c1ccccc1 (stereo not drawn)
test value: +
--
molecule: NCCc1ccc(O)c(O)c1
test value: −
--
molecule: Cn1cnc2c1c(=O)[nH]c(=O)n2C
test value: −
--
molecule: C[C@H](N)[C@@H](O)c1ccccc1
test value: +
--
molecule: NCc1ccccc1
test value: −

###

system: GfTNMT; experiment: N-alkylation substrate screen using GfTNMT (LC-MS); type: biochemical, Glaucium flavum; design: key: −=no detectable quantities of product N-alkylated compound; Trace, +, ++, +++=increasing relative levels of product N-alkylated compound; Trace, +, ++, +++=increasing relative levels of product N-alkylated compound; Trace, +, ++, +++=increasing relative levels of product N-alkylated compound; Trace, +, ++, +++=increasing relative levels of product N-alkylated compound; details: 25 μg protein, 1 mM substrate, 1 mM SAM, 60 mM HEPES pH 8, 16 hours at 37° C.; relative level of N-alkylated product by LC-MS
reported metric: N-alkylation of substrate alkaloid compounds, Enzyme GfTNMT

compound: COc1ccc2c3c([nH]c2c1)C(C)=NCC3 [Harmaline, harmaline]
test target: GfTNMT
test value: −

compound: NC(=O)c1cccnc1 [Nicotinamide, nicotinamide]
test target: GfTNMT
test value: −

compound: NCCc1ccccc1 [2-Phenylethaneamine, 2-phenylethan-1-amine]
test target: GfTNMT
test value: Trace

compound: COc1ccc2c(c1OC)C(=O)O[C@@H]2[C@H]1c2c(cc3c(c2OC)OCO3)CCN1C [Noscapine, noscapine, reference compound]
test target: GfTNMT
test value: +++

compound: COc1ccc2c(c1)[nH]c1c(C)nccc12 [Harmine, harmine]
test target: GfTNMT
test value: −

compound: COc1cc2c(cc1O)C(Cc1ccc(O)cc1)NCC2 (stereo not drawn) [Coclaurine, coclaurine]
test target: GfTNMT
test value: +

compound: c1cc2c(c3c1C[C@H]1c4cc5c(cc4CCN1C3)OCO5)OCO2 [Stylopine, stylopine]
test target: GfTNMT
test value: +

compound: NCCc1c[nH]cn1 [Histamine, histamine]
test target: GfTNMT
test value: −

compound: COc1ccc(C[C@H]2c3cc(O)c(OC)cc3CCN2C)cc1O [S-Reticuline, reticuline]
test target: GfTNMT
test value: ++

From: patent US20210087593A1
